Assay: IN Cell qHTS Assay for Inhibitors of the mTORC1 Signaling Pathway in MEF (Tsc2-/-, p53-/-) Cells: Sytravon; further: nearly all actives have a fitted effect of over 60% in size
Details: phospho-rpS6 immunofluorescence, 24 h; series mostly up to 38.3 µM
About 210 (10%) of roughly 2,100 compounds were called active. Roughly 53% stayed inconclusive and do not appear here. The call rests on the fitted dose curve; in most records, active means well fitted inhibition curve with a large enough effect; inconclusive means small, poorly fitted or top-dose-only effect, or effect the other way; inactive means no such curve, though single readings can be large or run the other way. Some of the results follow.
I would appreciate it if you answered using one of these outcomes: yes (active), no (inactive)

Molecule: CCCCS(=O)(=O)c1nc(-c2ccc(Br)cc2)cc(-c2ccccc2)c1C#N
Assigned class: yes

Molecule: FC(F)(F)c1ccc(C2=Nc3ccccc3NC(c3cccs3)=N2)cc1
Assigned class: no

Molecule: CCc1cccc(NC(=O)c2oc3ccc4c(c3c2C)C(=O)CC(C)(C)O4)c1
Assigned class: no

Molecule: COc1ccc(CNC(=O)CCCN2C(=O)CSc3c2c(C)nn3-c2ccccc2)cc1
Assigned class: no

Molecule: Cc1ccc(CCNC(=O)c2c3c(nc4ccccc24)C(=O)N(C2CCCCC2)C3)cc1
Assigned class: no

Q. Recorded call for CSc1ccc(CCNC(=O)C(C)n2nc(C)c3sc4ccccc4c3c2=O)cc1 (stereo unspecified) ?
A. yes

---

Assay: IN Cell qHTS Assay for Inhibitors of the mTORC1 Signaling Pathway in MEF (Tsc2-/-, p53-/-) Cells: Sytravon; further: nearly all actives have a fitted effect of over 60% in size
Settings: phospho-rpS6 immunofluorescence, 24 h; series mostly up to 38.3 µM
The whole screen tested about 2,100 compounds, of which about 210 (10%) were called active. About 53% were inconclusive and are not listed. The call rests on the fitted dose curve; in most records, active means well fitted inhibition curve with a large enough effect; inconclusive means small, poorly fitted or top-dose-only effect, or effect the other way; inactive means no such curve, though single readings can be large or run the other way. The list shows a part of the results.
Respond with a class label; see label 1 = active, label 0 = inactive

Compound: Cc1ccc(-c2csc(-c3cc4c([nH]c3=O)CC(c3ccccc3)CC4=O)n2)cc1 (stereo not drawn)
Assigned class: label 0

Compound: Cc1ccc(NC(=O)c2cc(S(=O)(=O)N3CCCCCC3)ccc2F)cc1F
Assigned class: label 0

Compound: CC(C)(C)c1ccc(C(=O)N2CCCCC2CCN2CCCCC2)cc1 (stereo not drawn)
Assigned class: label 0

Compound: CCOC(=O)c1c(C)oc2ncnc(N3CCN(c4cccc(Cl)c4)CC3)c12
Assigned class: label 0

Compound: Cc1ccccc1OCCn1c(=N)n(C(C)C)c2ccccc21
Assigned class: label 1

Q. Could you please tell me the result logged for C#CCOc1c(Br)cc(C2C(C(=O)OC)=C(C)NC3=C2C(=O)c2ccccc23)cc1OCC (stereo not drawn) in this assay?
A. label 0

Q. Hi, sorry to bother you, what did the test record for CCS(=O)(=O)c1ncc(Cl)c(C(=O)N(Cc2ccccc2)Cc2ccco2)n1 ?
A. label 1

---

Test: IN Cell qHTS Assay for Inhibitors of the mTORC1 Signaling Pathway in MEF (Tsc2-/-, p53-/-) Cells: Sytravon; further: nearly all actives have a fitted effect of over 60% in size
Settings: phospho-rpS6 immunofluorescence, 24 h; series mostly up to 38.3 µM
Out of some 2,100 compounds screened, about 210 (10%) were called active. About 53% were inconclusive and are not listed. Calls follow the shape of the dose curve; as a rule, active = well fitted inhibition curve with a large enough effect; inconclusive = small, poorly fitted or top-dose-only effect, or effect the other way; inactive = no such curve, though single readings can be large or run the other way. The list shows a part of the results.
Choose the fitting class; nothing outside active, inactive is accepted.

Compound: O=C(NCc1ccccc1Cl)c1nnc(Cc2cccc(F)c2)o1
Assigned class: inactive

Compound: COc1ccc(/C=C/C(=O)Nc2ccc3nc4c(c(Nc5ccccc5OC)c3c2)CCCC4)cc1
Assigned class: active

Compound: COc1ccc(-c2cc(C(=O)Nc3ccc4c(c3)OCO4)no2)cc1
Assigned class: inactive

Q. Would you mind telling me which call this test gave Cc1cccc(-c2nc3cc(NC(=O)Cc4ccc(Cl)cc4)ccc3o2)c1 ?
A. inactive

Q. Can you look up the reported call for CCCCN1C(=O)C(O)(c2c(C)[nH]c3ccccc23)c2cc(Br)ccc21 (stereo unspecified) for me?
A. inactive

Q. Record request — test call for O=C(CC1(O)C(=O)N(CCc2ccccc2)c2ccc(Br)cc21)c1ccccc1O (stereo unspecified)
A. active

Q. What classification did O=C(Nc1ccc2oc(-c3ccc4ccccc4c3)nc2c1)c1cc(Br)ccc1Cl end up with in this test?
A. active

Q. // param item: CCCN1C(=O)C(O)(CC(=O)c2ccc(C(C)C)cc2)c2ccccc21 (stereo unspecified) ; yields the recorded call
A. inactive

Q. Which outcome was entered for the compound CCCCN1C(=O)C(O)(CC(=O)c2ccc(CC)cc2)c2cc(Br)ccc21 (stereo unspecified) in this test?
A. active

Ref: PubChem BioAssay AID504465
